# credit: patent US12660819B2

# System: Echinochloa crus-galli (ECHCG)
# experiment: Post-emergence Test (glasshouse, percentage damage to the plant)
# Assay type: in vivo
# measurement.parameters: post-emergence; 1000 g/ha unless otherwise stated; evaluated after 13 days
What ECHCG, percentage damage caused to the plant (five-point scale) was measured for each of the following?

// worked examples, ECHCG, percentage damage caused to the plant (five-point scale) included
| compound | assay.value |
| --- | --- |
| Cc1c(-c2ccc(F)cc2F)c(=O)c(C(=O)O)c(-c2ccc(Cl)c(Cl)c2)n1C | 5 (5=81-100%) |
| CCn1c(C)c(-c2ccc(Cl)cc2Cl)c(=O)c(C(=O)OC)c1-c1cnc(Cl)c(Cl)c1 | 0 |
| CCn1c(C)c(-c2cc(OC(C)C)c(Cl)cc2F)c(=O)c(C(=O)O)c1-c1ccc(Cl)c(Cl)c1 | 5 (5=81-100%) |

Okay, here is my list. What is ECHCG, percentage damage caused to the plant (five-point scale) for each of these?
1. CCn1c(C)c(-c2cccc(C(F)(F)F)n2)c(=O)c(C(=O)O)c1-c1ccc(Cl)c(Cl)c1
2. CCn1c(C)c(-c2ccc(F)cc2)c(=O)c(C(=O)O)c1-c1cnc(Cl)c(Cl)c1
3. CCn1c(C)c(-c2ccc(F)cc2F)c(=O)c(C(=O)OC)c1-c1cnc(Cl)c(Cl)c1
4. CCn1c(C)c(-c2ccc(Cl)cc2)c(=O)c(C(=O)O)c1-c1cnc(Cl)c(Cl)c1

Result:
1: 1 (1=0-20%); 2: 1 (1=0-20%); 3: 0; 4: 3 (3=41-60%)

Return reported ECHCG, percentage damage caused to the plant (five-point scale) values for all items listed beneath this line.
1. CCn1c(C)c(-c2cccc(C(F)(F)F)c2F)c(=O)c(C(=O)O)c1-c1ccc(Cl)c(Cl)c1
2. Cc1c(-c2ccc(Cl)cc2Cl)c(=O)c(C(=O)O)c(-c2ccc(Cl)c(Cl)c2)n1C
3. Cc1c(-c2ccc(Cl)cc2F)c(=O)c(C(=O)O)c(-c2ccc(Cl)c(Cl)c2)n1C
4. CCn1c(C)c(-c2cc(OC(C)C)c(Cl)cc2F)c(=O)c(C(=O)O)c1-c1ccc(F)c(F)c1

Result:
1: 4 (4=61-80%); 2: 1 (1=0-20%); 3: 5 (5=81-100%); 4: 4 (4=61-80%)
